Attribution: ChEMBL document CHEMBL4219169

- Experimental Protocol: Lipophilicity, log D of the compound at pH 6.5 by HPLC analysis
- Type: physicochemical
- Reported Conditions: buffer

Molecule	logD
CCc1ccc(N(CC(C)C)S(=O)(=O)c2ccc(OCC3CCOCC3)c(CC#N)c2)cc1	6.5
CCc1ccc(N(CC(C)C)S(=O)(=O)c2ccc(OC3CCOCC3)c(S(C)(=N)=O)c2)cc1 (stereo unspecified)	4.4
CCc1ccc(N(CC(C)C)S(=O)(=O)c2ccc(OCC3CCOCC3)c(S(=N)(=O)CC)c2)cc1 (stereo unspecified)	5
CCc1ccc(N(CC(C)C)S(=O)(=O)c2ccc(OCC3CCOCC3)c(CO)c2)cc1 [GSK2981278]	5.9
CCc1ccc(N(CC(C)C)S(=O)(=O)c2ccc(NCC3(CC)CCOCC3)c(S(C)(=N)=O)c2)cc1 (stereo unspecified)	6.1
CCc1ccc(N(CC(C)C)S(=O)(=O)c2ccc(N[C@@H](C)C3CCOCC3)c(S(C)(=N)=O)c2)cc1 (stereo partly specified)	5.6
